Target: hSTING (H232) (Homo sapiens, UniProt Q86WV6)
Construct: host or cells: HEK293T
Sequence (Q86WV6 whole entry): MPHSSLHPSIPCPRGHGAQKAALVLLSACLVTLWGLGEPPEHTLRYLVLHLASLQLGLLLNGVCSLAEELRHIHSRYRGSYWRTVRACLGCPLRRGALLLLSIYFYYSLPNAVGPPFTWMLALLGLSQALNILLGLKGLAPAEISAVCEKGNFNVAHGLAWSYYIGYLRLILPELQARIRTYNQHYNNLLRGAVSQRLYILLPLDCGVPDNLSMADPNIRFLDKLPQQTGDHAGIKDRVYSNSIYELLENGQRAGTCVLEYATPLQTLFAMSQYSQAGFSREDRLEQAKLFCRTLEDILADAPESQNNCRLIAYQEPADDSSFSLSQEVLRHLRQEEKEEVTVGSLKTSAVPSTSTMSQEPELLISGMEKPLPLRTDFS
Experiment: Luciferase reporter assay in HEK293T-hSTING-Luciferase cells (H232/REF polymorph)
Type: cell-based
Conditions: EC50 range
pEC50: −log10 of the molar value.
property.name: pEC50

molecule: COc1cccc(CN2C(=O)C(C)(C)c3ccc(C(=O)NCc4c(F)cc(F)cc4F)cc32)c1F
property.name: pEC50
value.measured: 5.00 to 6.00
--
molecule: CC1(C)C(=O)N(Cc2cc(F)cc(F)c2)c2cc(C(=O)NCc3c(F)cc(F)cc3F)ccc21
property.name: pEC50
value.measured: ≥ 6.00
--
molecule: CC1(C)C(=O)N(Cc2c(F)cccc2C#N)c2cc(C(=O)NCc3c(F)cc(F)cc3F)ccc21
property.name: pEC50
value.measured: 5.00 to 6.00
--
molecule: CC1(C)C(=O)N(Cc2c(F)cccc2OC(F)F)c2cc(C(=O)NCc3c(F)cc(F)cc3F)ccc21
property.name: pEC50
value.measured: ≥ 6.00
--
molecule: CCC1(OC)C(=O)N(Cc2c(F)cccc2Cl)c2cc(C(=O)NCc3c(F)cc(F)cc3F)ccc21 (centres unmarked)
property.name: pEC50
value.measured: 5.00 to 6.00
--
molecule: Cc1cccc(F)c1CN1C(=O)C(C)(C)c2ccc(C(=O)NCc3c(F)cc(F)cc3F)cc21
property.name: pEC50
value.measured: ≥ 6.00
--
molecule: Cc1cc(CN2C(=O)C(C)(C)c3ccc(C(=O)NCc4c(F)cc(F)cc4F)cc32)nn1C
property.name: pEC50
value.measured: 5.00 to 6.00
--
molecule: CC1(Cl)C(=O)N(Cc2cc(F)cc(F)c2)c2cc(C(=O)NCc3c(F)cc(F)cc3F)ccc21 (centres unmarked) [Example 147]
property.name: pEC50
value.measured: < 5.00
--
molecule: Cc1nn(C)c(CN2C(=O)C(C)(C)c3ccc(C(=O)NCc4cc5cc(F)c(F)cc5o4)cc32)c1F
property.name: pEC50
value.measured: ≥ 6.00
--
molecule: Cc1cc(CN2C(=O)C(C)(C)c3ccc(C(=O)NCc4c(F)cc(F)cc4F)cc32)no1
property.name: pEC50
value.measured: 5.00 to 6.00

Now look at this entry.
Problem: Which value of pEC50 has been reported for `CC1(C)C(=O)N(Cc2ccc(N=[N+]=[N-])cc2)c2cc(C(=O)NCc3c(F)cc(F)cc3F)ccc21` in the records?
Result: 5.00 to 6.00

====

Parameter pEC50: see the listing below.
Biological target: WT/R232 STING protein (Homo sapiens, UniProt Q86WV6, H232R)
Sequence (Q86WV6 whole entry H232R): as the sequence (Q86WV6 whole entry) above, with H232R counted along it
Assay: Luciferase reporter assay in HEK293T-hSTING-Luciferase cells (R232)
Conditions: 20 hr stimulation, EC50 range
pEC50: −log10 of the molar value.

The examples below pair each entry with its known result.
compound: Cc1ccc(CNC(=O)c2cnc3c(c2)N(Cc2c(C)cccc2F)C(=O)C3(C)C)o1 [Example 196]
study.system: WT/R232 STING protein (Homo sapiens, UniProt Q86WV6, H232R)
value.measured: < 5.00
//
compound: CC1(C)C(=O)N(Cc2cccc(C(N)=O)c2)c2cc(C(=O)NCc3ccc(F)cc3F)ccc21 [Example 38]
study.system: WT/R232 STING protein (Homo sapiens, UniProt Q86WV6, H232R)
value.measured: 5.00 to 6.00
//
compound: Cc1ccc(CNC(=O)c2ccc3c(c2)N(Cc2ccc(F)cc2)C(=O)C3(C)C)o1 [Example 60]
study.system: WT/R232 STING protein (Homo sapiens, UniProt Q86WV6, H232R)
value.measured: 5.00 to 6.00
//
compound: CC1(C)C(=O)N(Cc2c(F)cccc2Cl)c2cc(C(=O)NCc3ccc4c(c3)OCO4)ccc21 [Example 86]
study.system: WT/R232 STING protein (Homo sapiens, UniProt Q86WV6, H232R)
value.measured: 5.00 to 6.00
//
compound: CC1(C)C(=O)N(Cc2cc(F)cc(F)c2)c2cc(C(=O)NCc3ccc(F)cc3F)cnc21 [Example 199]
study.system: WT/R232 STING protein (Homo sapiens, UniProt Q86WV6, H232R)
value.measured: 5.00 to 6.00
//
compound: Cc1cccc(-c2nc(CN3C(=O)C(C)(C)c4ccc(C(=O)NCc5c(F)cc(F)cc5F)cc43)c(C)o2)c1 [Example 78]
study.system: WT/R232 STING protein (Homo sapiens, UniProt Q86WV6, H232R)
value.measured: < 5.00

Problem: Which value of pEC50 has been reported for CC1(C)C(=O)N(Cc2cc(F)cc(F)c2)c2nc(C(=O)NCc3ccc(C#N)cc3)ccc21 [Example 192] in the records?
Result: 5.00 to 6.00

====

Parameter EC50: see the listing below.
Target: WT/R232 STING protein (Homo sapiens, UniProt Q86WV6, H232R)
Assay: Luciferase reporter assay in HEK293T-hSTING-Luciferase cells (R232)
Conditions: 20 hr stimulation, EC50 range

The examples below pair each entry with its known result.
compound: CC1(CCN2CCOCC2)C(=O)N(Cc2cc(F)cc(F)c2)c2cc(C(=O)NCc3c(F)cc(F)cc3F)ccc21 (stereo not shown)
study.system: WT/R232 STING protein (Homo sapiens, UniProt Q86WV6, H232R)
EC50: > 10 µM
//
compound: Cc1ccc(CNC(=O)c2ccc3c(c2)N(CC(=O)c2ccccc2)C(=O)C3(C)C)o1
study.system: WT/R232 STING protein (Homo sapiens, UniProt Q86WV6, H232R)
EC50: > 10 µM
//
compound: CC1(C)C(=O)N(Cc2cc3ccccc3o2)c2cc(C(=O)NCc3c(F)cc(F)cc3F)ccc21
study.system: WT/R232 STING protein (Homo sapiens, UniProt Q86WV6, H232R)
EC50: > 10 µM
//
compound: CC(C)C1(O)C(=O)N(Cc2c(F)cccc2Cl)c2cc(C(=O)NCc3c(F)cc(F)cc3F)ccc21 (stereo not shown)
study.system: WT/R232 STING protein (Homo sapiens, UniProt Q86WV6, H232R)
EC50: > 10 µM
//
compound: Cc1oc(-c2ccccc2)nc1CN1C(=O)C(C)(C)c2ccc(C(=O)NCc3c(F)cc(F)cc3F)cc21
study.system: WT/R232 STING protein (Homo sapiens, UniProt Q86WV6, H232R)
EC50: > 10 µM
//
compound: CC1(C)C(=O)N(Cc2cccc(F)c2F)c2cc(C(=O)NCc3c(F)cc(F)cc3F)ccc21
study.system: WT/R232 STING protein (Homo sapiens, UniProt Q86WV6, H232R)
EC50: ≤ 1 µM
//
compound: CC1(C)C(=O)N(Cc2ccccc2F)c2cc(C(=O)NCc3ccco3)ccc21
study.system: WT/R232 STING protein (Homo sapiens, UniProt Q86WV6, H232R)
EC50: 1 to 10 µM
//
compound: CC1(C)CN(C(=O)c2c(F)cccc2Cl)c2cc(C(=O)NCc3ccco3)ccc21
study.system: WT/R232 STING protein (Homo sapiens, UniProt Q86WV6, H232R)
EC50: > 10 µM

Problem: Short answer please: EC50, WT/R232 STING protein (Homo sapiens, UniProt Q86WV6, H232R), entry CC(C)C1(Cl)C(=O)N(Cc2c(F)cccc2Cl)c2cc(C(=O)NCc3c(F)cc(F)cc3F)ccc21 (stereo not shown)
Result: ≤ 1 µM

Problem: Short answer please: EC50, WT/R232 STING protein (Homo sapiens, UniProt Q86WV6, H232R), entry `CC1(C)C(=O)N(Cc2c(F)cccc2Cl)c2cc(C(=O)NCc3c(F)cccc3F)ccc21`
Result: ≤ 1 µM

====

Target: hSTING (HAQ) (Homo sapiens, UniProt Q86WV6, G230A/H232R/R293Q/R71H)
Sequence (Q86WV6 whole entry R71H/G230A/H232R/R293Q): as the sequence (Q86WV6 whole entry) above, with R71H, G230A, H232R, R293Q counted along it
Assay: Luciferase reporter assay in HEK293T-hSTING-Luciferase cells (HAQ polymorph)
Settings: EC50 range
property.name: EC50

The examples below pair each entry with its known result.
molecule: Cc1nn(C)c(CN2C(=O)C(C)(C)c3ccc(C(=O)NCc4c(F)cc(F)cc4F)cc32)c1Br
value.measured: ≤ 1000 nM
//
molecule: CC1(Cl)C(=O)N(Cc2c(F)cccc2Cl)c2cc(C(=O)NCc3c(F)cc(F)cc3F)ccc21 (centres unmarked)
value.measured: 1000 to 10000 nM
//
molecule: Cc1ccc(CNC(=O)c2ccc3c(c2)N(Cc2cc(F)cc(F)c2)C(=O)C3(C)C)o1
value.measured: 1000 to 10000 nM

Now look at this entry.
Problem: Which value of EC50 has been reported for `CCn1nc(C)cc1CN1C(=O)C(C)(C)c2ccc(C(=O)NCc3cc4cc(F)ccc4o3)cc21` in the records?
Result: ≤ 1000 nM

====

Molecular target: hSTING (HAQ) (Homo sapiens, UniProt Q86WV6, G230A/H232R/R293Q/R71H)
Assay: Luciferase reporter assay in HEK293T-hSTING-Luciferase cells (HAQ polymorph)
Conditions: EC50 range
property.name: EC50

The examples below pair each entry with its known result.
smiles.input: Cc1ccc(CNC(=O)c2ccc3c(c2)N(Cc2ccc(F)cc2)C(=O)C3(C)C)o1
study.system: hSTING (HAQ) (Homo sapiens, UniProt Q86WV6, G230A/H232R/R293Q/R71H)
property.name: EC50
value.measured: 1 to 10 µM
//
smiles.input: CC1(C)C(=O)N(Cc2c(F)cccc2Cl)c2cc(C(=O)NCc3c(F)cc(F)cc3F)ccc21
study.system: hSTING (HAQ) (Homo sapiens, UniProt Q86WV6, G230A/H232R/R293Q/R71H)
property.name: EC50
value.measured: ≤ 1 µM

Now look at this entry.
Problem: Which value of EC50 has been reported for `CC1(C)C(=O)N(Cc2cccc(C(N)=O)c2)c2cc(C(=O)NCc3c(F)cc(F)cc3F)ccc21` in the records?
Result: > 10 µM
